- Target: ULK1 (Homo sapiens, UniProt O75385)
- Construct: purchased Promega V3521
- Sequence (O75385 whole entry): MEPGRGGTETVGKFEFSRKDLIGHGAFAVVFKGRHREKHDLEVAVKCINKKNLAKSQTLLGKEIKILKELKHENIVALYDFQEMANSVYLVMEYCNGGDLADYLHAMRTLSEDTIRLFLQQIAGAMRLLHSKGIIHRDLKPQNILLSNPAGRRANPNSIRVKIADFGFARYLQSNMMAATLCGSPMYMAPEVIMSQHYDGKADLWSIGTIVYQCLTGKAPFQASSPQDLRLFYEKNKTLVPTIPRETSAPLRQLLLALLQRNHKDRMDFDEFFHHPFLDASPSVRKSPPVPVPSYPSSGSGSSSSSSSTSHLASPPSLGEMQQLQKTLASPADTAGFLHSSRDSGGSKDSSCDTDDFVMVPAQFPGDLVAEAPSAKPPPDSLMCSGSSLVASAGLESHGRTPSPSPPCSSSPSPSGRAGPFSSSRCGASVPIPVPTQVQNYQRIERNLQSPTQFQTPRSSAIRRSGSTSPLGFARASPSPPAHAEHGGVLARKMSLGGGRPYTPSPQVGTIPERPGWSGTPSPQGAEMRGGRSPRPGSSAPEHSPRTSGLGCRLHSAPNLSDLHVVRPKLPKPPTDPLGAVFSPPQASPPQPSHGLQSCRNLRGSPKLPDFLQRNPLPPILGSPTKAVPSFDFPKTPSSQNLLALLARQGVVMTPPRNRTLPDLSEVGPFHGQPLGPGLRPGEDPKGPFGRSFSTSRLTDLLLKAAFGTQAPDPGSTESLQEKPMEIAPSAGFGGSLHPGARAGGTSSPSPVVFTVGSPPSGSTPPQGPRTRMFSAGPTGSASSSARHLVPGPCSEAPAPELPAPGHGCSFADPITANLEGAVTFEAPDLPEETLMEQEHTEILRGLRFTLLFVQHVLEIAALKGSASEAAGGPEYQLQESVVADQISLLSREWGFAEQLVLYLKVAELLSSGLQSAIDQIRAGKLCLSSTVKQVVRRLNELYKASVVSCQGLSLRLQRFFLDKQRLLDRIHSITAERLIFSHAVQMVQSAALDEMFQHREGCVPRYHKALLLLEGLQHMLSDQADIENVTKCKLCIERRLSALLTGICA
- Measurement Description: Inhibition of ULK1 protein activity (phosphorylation function), ADP-Glo method
- Assay type: biochemical
Measurement Label: IC50

Quick one: IC50 for CN1CCN2c3ccc(Nc4ncc(C(F)(F)F)c(NCCCn5cccn5)n4)cc3COCC2C1 (stereo not shown) ?
< 100 nM

Can you check CN1CCN2c3ccc(Nc4ncc(C(F)(F)F)c(N5CCN(C)C(=O)C5)n4)cc3COCC2C1 (stereo not shown) next?
100 to 1000 nM

Record: CN1CCN2c3ccc(Nc4ncc(C(F)(F)F)c(N5CC6(CCN(C)C6)C5)n4)cc3COCC2C1 (stereo not shown)
< 100 nM

Consider next the molecule CN1CCN2c3ccc(Nc4ncc(C(F)(F)F)c(NCCCN5CCCCC5=O)n4)cc3COCC2C1 (stereo not shown) in the same way.
< 100 nM

Data provenance is patent EP4778931A1.
